- assay-notes: MicroPET blood and normal organ uptake in T47D and MDA-MB-435 tumor-bearing nude mice
- study-conditions: nude, mouse, liver, iv, total radioactivity, Liver uptake, average of eight mice, 1 h
measured-attribute: tissue uptake at 1 h

Input: Can you look up the measured tissue uptake at 1 h of CSCC[C@H](NC(=O)[C@H](CC(C)C)NC(=O)[C@H](Cc1c[nH]cn1)NC(=O)CNC(=O)[C@@H](NC(=O)[C@H](C)NC(=O)[C@H](Cc1c[nH]c2ccccc12)NC(=O)[C@H](CCC(N)=O)NC(=O)CCCCCNC(=O)CC[C@H](NC(=S)Nc1ccc(C[C@H]2CN(CC(=O)O)CCN(CC(=O)O)CCN2CC(=O)O)cc1)C(=O)NCCCC[C@@H]1NC(=O)[C@@H](Cc2ccc(O)cc2)NC(=O)[C@H](CC(=O)O)NC(=O)CNC(=O)[C@H](CCCNC(=N)N)NC1=O)C(C)C)C(N)=O [^68Ga-NOTA-RGD-BBN, metal not drawn] for me?
Output: 2.08 %ID/g

----------
- assay-notes: in vivo
- study-conditions: mouse, in vivo, iv, 5.5 MBq, total radioactivity, Liver uptake
measured-attribute: tissue uptake at 20 h
State the result as a value with its unit after it.

Input: Bench note: what tissue uptake at 20 h did CSCC[C@H](NC(=O)[C@H](CC(C)C)NC(=O)[C@H](Cc1c[nH]cn1)NC(=O)CNC(=O)[C@@H](NC(=O)[C@H](C)NC(=O)[C@H](Cc1c[nH]c2ccccc12)NC(=O)[C@H](CCC(N)=O)NC(=O)CCCCCNC(=O)CC[C@H](NC(=S)Nc1ccc(C[C@H]2CN(CC(=O)O)CCN(CC(=O)O)CCN2CC(=O)O)cc1)C(=O)NCCCC[C@@H]1NC(=O)[C@@H](Cc2ccc(O)cc2)NC(=O)[C@H](CC(=O)O)NC(=O)CNC(=O)[C@H](CCCNC(=N)N)NC1=O)C(C)C)C(N)=O [^64Cu-NOTA-RGD-BBN, metal not drawn] show?
Output: 0.98 %ID/g

Input: Record request: tissue uptake at 20 h value, item CSCC[C@H](NC(=O)[C@H](CC(C)C)NC(=O)[C@H](Cc1c[nH]cn1)NC(=O)CNC(=O)[C@@H](NC(=O)[C@H](C)NC(=O)[C@H](Cc1c[nH]c2ccccc12)NC(=O)[C@H](CCC(N)=O)NC(=O)CCCCCNC(=S)Nc1ccc(C[C@H]2CN(CC(=O)O)CCN(CC(=O)O)CCN2CC(=O)O)cc1)C(C)C)C(N)=O [^64Cu-NOTA-BBN, metal not drawn, reference compound]
Output: 4.2 %ID/g

Input: Report tissue uptake at 20 h for N=C(N)NCCC[C@@H]1NC(=O)[C@H](CCCCNC(=S)Nc2ccc(C[C@H]3CN(CC(=O)O)CCN(CC(=O)O)CCN3CC(=O)O)cc2)NC(=O)[C@@H](Cc2ccc(O)cc2)NC(=O)[C@H](CC(=O)O)NC(=O)CNC1=O [^64Cu-NOTA-RGD, metal not drawn, reference compound] please.
Output: 1.67 %ID/g

Input: GET /values?readout=tissue uptake at 20 h&item= CSCC[C@H](NC(=O)[C@H](CC(C)C)NC(=O)[C@H](Cc1c[nH]cn1)NC(=O)CNC(=O)[C@@H](NC(=O)[C@H](C)NC(=O)[C@H](Cc1c[nH]c2ccccc12)NC(=O)[C@H](CCC(N)=O)NC(=O)CCCCCNC(=O)CC[C@H](NC(=O)CN1CCN(CC(=O)O)CCN(CC(=O)O)CCN(CC(=O)O)CC1)C(=O)NCCCC[C@@H]1NC(=O)[C@@H](Cc2ccc(O)cc2)NC(=O)[C@H](CC(=O)O)NC(=O)CNC(=O)[C@H](CCCNC(=N)N)NC1=O)C(C)C)C(N)=O [^64Cu-DOTA-RGD-BBN, metal not drawn]
Output: 1.74 %ID/g
